- test.system: Prostaglandin G/H synthase 1 (Homo sapiens, UniProt P23219)
- Sequence (P23219 whole entry): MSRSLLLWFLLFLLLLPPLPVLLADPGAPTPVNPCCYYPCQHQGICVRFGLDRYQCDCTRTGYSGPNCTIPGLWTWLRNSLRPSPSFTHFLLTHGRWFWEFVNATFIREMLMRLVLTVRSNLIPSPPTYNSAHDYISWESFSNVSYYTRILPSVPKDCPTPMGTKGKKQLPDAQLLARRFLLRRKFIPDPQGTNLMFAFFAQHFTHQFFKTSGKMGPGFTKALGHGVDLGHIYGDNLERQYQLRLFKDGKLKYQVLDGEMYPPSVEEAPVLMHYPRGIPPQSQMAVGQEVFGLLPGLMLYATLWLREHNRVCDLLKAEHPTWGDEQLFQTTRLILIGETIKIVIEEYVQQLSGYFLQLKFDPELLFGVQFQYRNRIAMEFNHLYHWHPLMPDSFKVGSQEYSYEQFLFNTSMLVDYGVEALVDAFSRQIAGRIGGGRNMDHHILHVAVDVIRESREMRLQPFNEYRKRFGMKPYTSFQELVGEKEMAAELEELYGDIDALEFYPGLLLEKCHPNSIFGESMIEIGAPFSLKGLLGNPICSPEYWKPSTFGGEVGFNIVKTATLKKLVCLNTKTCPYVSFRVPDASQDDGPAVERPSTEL
pIC50: −log10 of the molar value.
quantity.measured: pIC50

Field pIC50 (Prostaglandin G/H synthase 1 (Homo sapiens, UniProt P23219)), entry "COc1ccc(C#CC(C)(C)N)cc1C(=O)c1ccc(Nc2ccc(F)cc2F)cc1" : < 4.10

----------
- test.system: Mitogen-activated protein kinase 14 (Mus musculus)
- Sequence (P47811 whole entry): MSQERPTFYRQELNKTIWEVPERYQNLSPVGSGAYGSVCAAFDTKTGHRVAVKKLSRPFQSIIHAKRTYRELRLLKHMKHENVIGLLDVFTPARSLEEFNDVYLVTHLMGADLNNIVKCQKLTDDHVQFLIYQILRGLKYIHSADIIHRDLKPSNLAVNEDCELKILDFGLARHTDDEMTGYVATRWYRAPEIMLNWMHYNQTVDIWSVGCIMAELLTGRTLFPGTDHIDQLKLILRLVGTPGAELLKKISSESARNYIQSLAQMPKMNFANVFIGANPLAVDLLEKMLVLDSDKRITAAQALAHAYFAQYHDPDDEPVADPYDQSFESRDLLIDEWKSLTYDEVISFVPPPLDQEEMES
- test.details: Inhibition of murine His-Mitogen-activated protein kinase p38 alpha phosphorylation.
quantity.measured: IC50 (µM)
Entry rule: numbers only, all in µM.

Example compounds with recorded IC50:
{"smiles.data": "COc1ccc(C#CC(C)(C)N)cc1C(=O)c1ccc(Nc2ccc(F)cc2F)cc1", "IC50, µM": 14}
{"smiles.data": "Cc1nc2cc(C(=O)c3ccc(Nc4ccc(F)cc4F)cc3)c(Cl)cc2[nH]1", "IC50, µM": 0.7}
{"smiles.data": "CC(C)(N)CCc1ccc(Cl)c(C(=O)c2ccc(Nc3ccc(F)cc3F)nc2)c1", "IC50, µM": 160}
{"smiles.data": "COc1ccc(CCC2(O)CCN(C)CC2)cc1C(=O)c1ccc(Nc2ccc(F)cc2F)cc1", "IC50, µM": 51}

Next:
// recorded IC50 for "COc1ccc(CCC(C)(C)N)cc1C(=O)c1ccc(Nc2ccc(F)cc2F)cc1" : 113

From: ChEMBL document CHEMBL1147484
